species on record: Rattus norvegicus; assay: Open TG-GATES - Regimen: Single; format: toxicity, organism-based, Sprague-Dawley; design: regimen Single, gender Male, age 6 weeks; details: in vivo, po, 0 mg/kg, 24 h, tissue Plasma, route gavage, dose level Control
IP listing for selected compounds.
Write the numeric value and follow it with the unit.

Compound: O=C(OC[C@H]1O[C@@H](OC(=O)c2cc(O)c(O)c(OC(=O)c3cc(O)c(O)c(O)c3)c2)[C@H](OC(=O)c2cc(O)c(O)c(OC(=O)c3cc(O)c(O)c(O)c3)c2)[C@@H](OC(=O)c2cc(O)c(O)c(OC(=O)c3cc(O)c(O)c(O)c3)c2)[C@@H]1OC(=O)c1cc(O)c(O)c(OC(=O)c2cc(O)c(O)c(O)c2)c1)c1cc(O)c(O)c(OC(=O)c2cc(O)c(O)c(O)c2)c1 [TANNIC ACID]
IP: 8.7 mg/dL
--
Compound: Cc1nnc2n1-c1ccc(Cl)cc1C(c1ccccc1Cl)=NC2 [TRIAZOLAM]
IP: 8.3 mg/dL
--
Compound: Brc1ccccc1 [BROMOBENZENE]
IP: 8 mg/dL

Lab note: next compound to report on.
Reported IP for CN(C)CCC(c1ccc(Cl)cc1)c1ccccn1 (centres undefined) [CHLORPHENIRAMINE] was 8.8 mg/dL

* * *

organism: Rattus norvegicus; experiment: Open TG-GATES - Regimen: Single; type: toxicity, organism-based, Sprague-Dawley; design: regimen Single, gender Male, age 6 weeks; details: in vivo, po, 1000 mg/kg, 24 h, tissue Plasma, route gavage, dose level High
Observed Property: BUN (mg/dL)
Numeric answer only, unit mg/dL assumed.

Solved cases (2 shown):
Smiles Code: Cc1nnc2n1-c1ccc(Cl)cc1C(c1ccccc1Cl)=NC2
Observed Property: BUN
Observed Value: 13.6
--
Smiles Code: CN/C(=N/CCSCc1nc[nH]c1C)NC#N
Observed Property: BUN
Observed Value: 17.8

Reported BUN for CNC(=C[N+](=O)[O-])NCCSCc1ccc(CN(C)C)o1 was 15.4

* * *

Ca listing for selected molecules.
species: Rattus norvegicus; test: Open TG-GATES - Regimen: Single; assay type: toxicity, organism-based, Sprague-Dawley; design: regimen Single, gender Male, age 6 weeks; conditions: in vivo, po, 100 mg/kg, 3 h, tissue Plasma, route gavage, dose level Low
Write the numeric value and follow it with the unit.

Reported Ca for COC(=O)C1=C(C)NC(C)=C(C(=O)OC)C1c1ccccc1[N+](=O)[O-] [NIFEDIPINE] was 11.7 mg/dL

Reported Ca for CNC(=C[N+](=O)[O-])NCCSCc1ccc(CN(C)C)o1 [RANITIDINE] was 10.7 mg/dL

Reported Ca for CN/C(=N/CCSCc1nc[nH]c1C)NC#N [CIMETIDINE] was 10.6 mg/dL

* * *

organism: Rattus norvegicus; assay: Open TG-GATES - Regimen: Single; type: toxicity, organism-based, Sprague-Dawley; set-up: regimen Single, gender Male, age 6 weeks; conditions: in vivo, po, 0 mg/kg, 9 h, tissue Plasma, route gavage, dose level Control
Observed Property: Ca
Write the numeric value and follow it with the unit.

Solved cases (6 shown):
Molecule: Nc1c2c(nc3ccccc13)CCCC2
Ca: 10.4 mg/dL
--
Molecule: CCCc1cc(=O)[nH]c(=S)[nH]1
Ca: 10.6 mg/dL
--
Molecule: CCOc1ccc(NC(C)=O)cc1
Ca: 10.9 mg/dL
--
Molecule: NC1=NC(=O)C(c2ccccc2)O1 (stereo not drawn)
Ca: 10.3 mg/dL
--
Molecule: COC(=O)C1=C(C)NC(C)=C(C(=O)OC)C1c1ccccc1[N+](=O)[O-]
Ca: 10.4 mg/dL
--
Molecule: CNC(=C[N+](=O)[O-])NCCSCc1ccc(CN(C)C)o1
Ca: 10.5 mg/dL

Reported Ca for O=C(OC[C@H]1O[C@@H](OC(=O)c2cc(O)c(O)c(OC(=O)c3cc(O)c(O)c(O)c3)c2)[C@H](OC(=O)c2cc(O)c(O)c(OC(=O)c3cc(O)c(O)c(O)c3)c2)[C@@H](OC(=O)c2cc(O)c(O)c(OC(=O)c3cc(O)c(O)c(O)c3)c2)[C@@H]1OC(=O)c1cc(O)c(O)c(OC(=O)c2cc(O)c(O)c(O)c2)c1)c1cc(O)c(O)c(OC(=O)c2cc(O)c(O)c(O)c2)c1 was 10.5 mg/dL

Reported Ca for Brc1ccccc1 was 10.8 mg/dL

Reported Ca for CN/C(=N/CCSCc1nc[nH]c1C)NC#N was 10.5 mg/dL

Reported Ca for Cc1nnc2n1-c1ccc(Cl)cc1C(c1ccccc1Cl)=NC2 was 10.6 mg/dL

Reported Ca for CN(C)CCC(c1ccc(Cl)cc1)c1ccccn1 (stereo not drawn) was 10.2 mg/dL

Reported Ca for CN1C(=O)CCS(=O)(=O)C1c1ccc(Cl)cc1 (stereo not drawn) was 11.1 mg/dL

Reported Ca for CC(C)NNC(=O)c1ccncc1 was 10.3 mg/dL

* * *

organism: Rattus norvegicus; assay: Open TG-GATES - Regimen: Single; assay type: toxicity, organism-based, Sprague-Dawley; set-up: regimen Single, gender Male, age 6 weeks; settings: in vivo, po, 0 mg/kg, 9 h, tissue Plasma, route gavage, dose level Control
LDH listing for selected compounds.
Numeric answer only, unit IU/L assumed.

Solved cases (2 shown):
Compound: CCOc1ccc(NC(C)=O)cc1
Observed Value: 75.8
//
Compound: Nc1c2c(nc3ccccc13)CCCC2
Observed Value: 230.8

Reported LDH for CCCc1cc(=O)[nH]c(=S)[nH]1 was 102.4

Reported LDH for CS(=O)(=O)O.Cc1ccc(NC(=O)c2ccc(CN3CCN(C)CC3)cc2)cc1Nc1nccc(-c2cccnc2)n1 [IMATINIB MESYLATE] was 175

Reported LDH for O=C(OC[C@H]1O[C@@H](OC(=O)c2cc(O)c(O)c(OC(=O)c3cc(O)c(O)c(O)c3)c2)[C@H](OC(=O)c2cc(O)c(O)c(OC(=O)c3cc(O)c(O)c(O)c3)c2)[C@@H](OC(=O)c2cc(O)c(O)c(OC(=O)c3cc(O)c(O)c(O)c3)c2)[C@@H]1OC(=O)c1cc(O)c(O)c(OC(=O)c2cc(O)c(O)c(O)c2)c1)c1cc(O)c(O)c(OC(=O)c2cc(O)c(O)c(O)c2)c1 was 72.2

Reported LDH for CNC(=C[N+](=O)[O-])NCCSCc1ccc(CN(C)C)o1 was 122.8

Reported LDH for Cc1nnc2n1-c1ccc(Cl)cc1C(c1ccccc1Cl)=NC2 was 79.8

* * *

species on record: Rattus norvegicus; experiment: Open TG-GATES - Regimen: Single; format: toxicity, organism-based, Sprague-Dawley; design: regimen Single, gender Male, age 6 weeks; conditions: in vivo, po, 300 mg/kg, 9 h, tissue Blood, route gavage, dose level Middle
// NB: equality with 20% counts as Not met; only Neu strictly below is Met

# count of solved cases: 4
Smiles Code: O=C(OC[C@H]1O[C@@H](OC(=O)c2cc(O)c(O)c(OC(=O)c3cc(O)c(O)c(O)c3)c2)[C@H](OC(=O)c2cc(O)c(O)c(OC(=O)c3cc(O)c(O)c(O)c3)c2)[C@@H](OC(=O)c2cc(O)c(O)c(OC(=O)c3cc(O)c(O)c(O)c3)c2)[C@@H]1OC(=O)c1cc(O)c(O)c(OC(=O)c2cc(O)c(O)c(O)c2)c1)c1cc(O)c(O)c(OC(=O)c2cc(O)c(O)c(O)c2)c1
Category: Met

Smiles Code: CN/C(=N/CCSCc1nc[nH]c1C)NC#N
Category: Met

Smiles Code: CNC(=C[N+](=O)[O-])NCCSCc1ccc(CN(C)C)o1
Category: Not met

Smiles Code: Cc1nnc2n1-c1ccc(Cl)cc1C(c1ccccc1Cl)=NC2
Category: Not met

Please find the next molecule below.
Query block: Item COC(=O)C1=C(C)NC(C)=C(C(=O)OC)C1c1ccccc1[N+](=O)[O-] : Neu beneath 20%, strictly?
Result block: Met

* * *

TP listing for selected molecules.
organism: Rattus norvegicus; experiment: Open TG-GATES - Regimen: Single; type: toxicity, organism-based, Sprague-Dawley; parameters: regimen Single, gender Male, age 6 weeks; conditions: in vivo, po, 0 mg/kg, 3 h, tissue Plasma, route gavage, dose level Control
Numeric answer only, unit g/dL assumed.

Solved cases (2 shown):
Molecule: CN/C(=N/CCSCc1nc[nH]c1C)NC#N
Output Unit: g/dL
TP: 5.4

Molecule: CN(C)CCC(c1ccc(Cl)cc1)c1ccccn1 (centres undefined)
Output Unit: g/dL
TP: 5.3

Reported TP for CCCc1cc(=O)[nH]c(=S)[nH]1 was 5.5

Reported TP for COC(=O)C1=C(C)NC(C)=C(C(=O)OC)C1c1ccccc1[N+](=O)[O-] was 5.2

Reported TP for CNC(=C[N+](=O)[O-])NCCSCc1ccc(CN(C)C)o1 was 5.3

Reported TP for CC(C)NNC(=O)c1ccncc1 was 5.5

Reported TP for Brc1ccccc1 was 5.5

Reported TP for CN1C(=O)CCS(=O)(=O)C1c1ccc(Cl)cc1 (centres undefined) was 5.7

Reported TP for NC1=NC(=O)C(c2ccccc2)O1 (centres undefined) was 5.3
